Measured IC50 accompanies every entry in the list below.
# system: catalytic domain (JH1, amino acids 808-1132) of human JAK2 (Homo sapiens (Human), UniProt O60674)
# Sequence (O60674 808-1132): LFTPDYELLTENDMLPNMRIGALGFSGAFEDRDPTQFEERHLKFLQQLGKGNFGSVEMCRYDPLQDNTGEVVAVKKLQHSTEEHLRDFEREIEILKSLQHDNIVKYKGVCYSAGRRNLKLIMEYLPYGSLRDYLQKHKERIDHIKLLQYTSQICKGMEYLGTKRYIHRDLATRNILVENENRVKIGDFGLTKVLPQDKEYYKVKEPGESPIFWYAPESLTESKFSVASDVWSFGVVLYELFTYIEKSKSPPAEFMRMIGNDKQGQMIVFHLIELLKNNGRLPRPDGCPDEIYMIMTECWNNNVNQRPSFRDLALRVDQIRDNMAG
# method.notes: JAK2 HTRF Enzyme Activity Assay
# condition.label: JAK2 0.015 nM, ATP (30 μM or 1 mM), 60 minutes at 25° C.

                                   compound     value
0  Cc1c(-c2cccc(Cl)c2)c(=O)n(C)c2cnc3[nH]c(-c4ccc(CN5CCC(S(C)(=O)=O)CC5)cc4)cc3c12  ≤ 100 nM

INPUT: If you can, please state the reported IC50 value of CN(C)C(=O)c1ccc(-c2c(-c3cnn(C)c3)[nH]c3ncc4c(cc(N5CCC6(CCOC6)CC5)c(=O)n4C)c23)cc1 .
OUTPUT: 1000 to 10000 nM

INPUT: If you can, please state the reported IC50 value of Cn1c(=O)c(-c2ccc(C(=O)O)cc2)cc2c3cc(-c4ccc(CN5CCC(S(C)(=O)=O)CC5)cc4)[nH]c3ncc21 .
OUTPUT: 100 to 500 nM

INPUT: If you can, please state the reported IC50 value of Cc1c(-c2ccc(C(=O)O)cc2)c(=O)n(C)c2cnc3[nH]c(-c4ccc(CN5CCC(S(C)(=O)=O)CC5)cc4)cc3c12 .
OUTPUT: 100 to 500 nM

INPUT: If you can, please state the reported IC50 value of COc1c(-c2ccccc2)c(=O)n(C)c2cnc3[nH]c(-c4ccc(CN5CCC(S(C)(=O)=O)CC5)cc4)cc3c12 .
OUTPUT: ≤ 100 nM
